molecular target: recombinant human ACC1 (rhACC1) (Homo sapiens (Human), UniProt Q13085); assay: Transcreener ADP detection FP assay, direct inhibition of rhACC1; conditions: Geomean IC50, n ≥ 2 unless * then n = 1; 50 μM ATP, 30 μM acetyl-CoA
METRIC NAME: IC50 (nM)
Express your answer in nM, writing the number without its unit.

INSERT INTO results (smiles_structure, display_unit, observed) VALUES
  ('CNc1cnc2c(C)cc(C(=O)N3CCC4(CC3)CC(=O)c3nc(C(C)(C)C)sc3C4)cc2c1', 'nM', 3.4),
  ('Cc1n[nH]c2c(C)cc(C(=O)N3CCC4(CC3)CC(=O)c3nc(C56CC(C5)C6)sc3C4)cc12', 'nM', 11),
  ('CC(C)(C)c1nc2c(s1)CC1(CCN(C(=O)c3ccc4ccc(NC5CCC5)nc4c3)CC1)CC2=O', 'nM', 4);

**Query** For the compound `COc1cc(C(=O)N2CCC3(CC2)CC(=O)c2nc(C(C)(C)C)sc2C3)cc2c(OC)cncc12` , give its measured IC50 value.
**Result** 5.2

Values from patent US20240109915A1
